# Tested on: Mycobacterium tuberculosis
# method: Antibacterial activity against Mycobacterium tuberculosis H37Rv ATCC 27294 by microplate alamar blue assay
# Assay type: functional
Measured MIC of individual entries
The response must be a number in µg/mL with no trailing unit.

1) CCCCCCC[C@@H](O)c1cccc(CN2CCC(COc3cccc(/C(=N\OC)c4ccc(Cl)cc4)c3)CC2)c1 | 6.25
2) CCCCCC[C@@H](CN1CCC(COc2cccc(C(=O)c3ccc(Cl)cc3)c2)CC1)OC(N)=O | 12.5
3) CCCCCC[C@@H](O)CN1CCC(COc2cccc(C(=O)c3ccc(Cl)cc3)c2)CC1 | 6.2
4) CCCCCCC[C@H](O)c1cccc(CN2CCC(COc3ccc(C(=O)c4ccc(Cl)cc4)c(Cl)c3)CC2)c1 | 12.5
5) CCCCCCC[C@@H](OC(N)=O)c1cccc(CN2CCC(COc3ccc(C(=O)c4ccc(Cl)cc4)c(Cl)c3)CC2)c1 | 12.5

If you can, please state the reported MIC value of CCCCCCC[C@H](OC(N)=O)c1cccc(CN2CCC(COc3ccc(C(=O)c4ccc(Cl)cc4)c(Cl)c3)CC2)c1 .
12.5

State the recorded MIC for this entry: CCCCCCC[C@@H](O)c1cccc(CN2CCC(COc3ccc(C(=O)c4ccc(Cl)cc4)c(Cl)c3)CC2)c1
12.5

So what's the measured MIC for this one? CCCCC(O)CN1CCC(COc2ccc(C(=O)c3ccc(Cl)cc3)c(Cl)c2)CC1 (racemic)
6.25

Reported MIC for CCCC[C@H](O)CN1CCC(COc2cccc(C(=O)c3ccc(Cl)cc3)c2)CC1 : what is it?
12.5

Requested field: MIC. Item: CCCCCCCC(O)c1cccc(CN2CCC(COc3cccc(C(=O)c4ccc(Cl)cc4)c3)CC2)c1 (racemic)
12.5

For CCCC[C@@H](O)CN1CCC(COc2ccc(C(=O)c3ccc(Cl)cc3)c(Cl)c2)CC1 , what is its reported MIC?
6.25

Can you share its MIC? I mean this compound: CCCCCC[C@@H](CN1CCC(COc2ccc(C(=O)c3ccc(Cl)cc3)c(Cl)c2)CC1)OC(N)=O
1.5

// query MIC value for entry CCCCCCCC(O)c1cccc(CN2CCC(COc3ccc(C(=O)c4ccc(Cl)cc4)c(Cl)c3)CC2)c1 (racemic)
12.5

Can you share its MIC? I mean this compound: CCCCCCC[C@@H](OC(N)=O)c1cccc(CN2CCC(COc3cccc(C(=O)c4ccc(Cl)cc4)c3)CC2)c1
12.5

Suppose we examine the compound CCCCCC[C@H](CN1CCC(COc2cccc(/C(=N\OC)c3ccc(Cl)cc3)c2)CC1)OC(N)=O ; what MIC value has been reported?
2.31

====

# System: Staphylococcus aureus
# method: Antibacterial activity against Staphylococcus aureus Seattle 1945 ATCC 25923 by agar plate diffusion method
# Format: functional
quantity name: MIC

Examples with their reported MIC follow.
1) CCCCCCC[C@H](O)c1cccc(CN2CCC(COc3ccc(/C(=N\OC)c4ccc(Cl)cc4)c(Cl)c3)CC2)c1 | > 60 mg/L
2) CCCC[C@@H](O)CN1CCC(COc2ccc(C(=O)c3ccc(Cl)cc3)c(Cl)c2)CC1 | > 60 mg/L
3) COc1ccc(CCNC(CO)c2cccc(COc3cccc(C(=O)c4ccc(Cl)cc4)c3)c2)cc1 (racemic) | > 60 mg/L
4) CCCCCC[C@@H](CN1CCC(COc2ccc(C(=O)c3ccc(Cl)cc3)c(Cl)c2)CC1)OC(N)=O | > 60 mg/L
5) CCCCCCCC(O)c1cccc(CN2CCC(COc3ccc(C(=O)c4ccc(Cl)cc4)c(Cl)c3)CC2)c1 (racemic) | > 60 mg/L

Need MIC of CCCCCCC[C@@H](O)c1cccc(CN2CCC(COc3ccc(/C(=N\OC)c4ccc(Cl)cc4)c(Cl)c3)CC2)c1 , thanks.
> 60 mg/L

Given CCCCCCC[C@H](O)c1cccc(CN2CCC(COc3ccc(C(=O)c4ccc(Cl)cc4)c(Cl)c3)CC2)c1 , state its recorded MIC.
> 60 mg/L

What MIC value was documented for this compound, CCCC[C@@H](O)CN1CCC(COc2cccc(C(=O)c3ccc(Cl)cc3)c2)CC1 ?
> 60 mg/L

What value of measured MIC is listed for COc1ccc(CCN[C@H](CO)c2cccc(COc3cccc(C(=O)c4ccc(Cl)cc4)c3)c2)cc1 ?
> 60 mg/L

Data request, read-out MIC, for CCCCC(O)CN1CCC(COc2ccc(C(=O)c3ccc(Cl)cc3)c(Cl)c2)CC1 (racemic)
> 60 mg/L
